Data origin, for the record: PubChem BioAssay (NCI)

System: OVCAR-3 ovarian
experimentNotes: NCI tumour cell line growth inhibition, 48 h
assayEndpoint: TGI

Ask: Form entry - test system: OVCAR-3 ovarian; read-out: TGI; molecule: CN1N=C(c2ccncc2)OC1c1ccc(C(F)(F)F)cc1 (stereo unspecified)
Reply: > 100 µM

Ask: What do we get for Cc1cc2nc3c(N)nn(CCCN(C)C)c3nc2cc1C ?
Reply: > 100 µM

Ask: What do we get for COc1ccc(/C=N/n2c(-c3ccccc3)n[nH]c2=O)c(OC)c1 ?
Reply: > 100 µM

Ask: What do we get for Cc1n[nH]c(=O)c2c3c([nH]c12)-c1ccccc1C3 ?
Reply: > 100 µM

Ask: What do we get for O=C(OC1C#CCSCC#C/C=C\1)c1ccc2c(c1)C(=O)c1ccccc1C2=O (stereo unspecified) ?
Reply: > 100 µM

Ask: What do we get for CCCCCCCC(=O)NC(C)(C)C(=O)NCC(=O)NC(CC(C)C)C(=O)NC(C)(C)C(=O)NCC(=O)NCC(=O)NC(CC(C)C)C(=O)NC(C)(C)C(=O)NCC(=O)NC(C(=O)NC(CO)CC(C)C)C(C)CC (stereo unspecified) ?
Reply: 6.36 µM

Ask: What do we get for CN(N=O)c1ccc(/C=C/c2ccnc3ccccc23)cc1 ?
Reply: > 100 µM

Ask: What do we get for CN(CCNC(=O)c1nn(C)c2c1Cc1ccccc1-2)CCNC(=O)c1nn(C)c2c1Cc1ccccc1-2 ?
Reply: 29.8 µM

Ask: What do we get for NS(=O)(=O)c1cccc(Nc2cc(-c3ccc(F)cc3)[nH]n2)c1 ?
Reply: > 25 µM

Ask: What do we get for Clc1ccc(Cc2nc3cc(Cl)c(Cl)cc3n2CC2CCCN3CCCCC23)cc1 (stereo unspecified) ?
Reply: 28.5 µM

Ask: What do we get for COC(=O)CC(=O)OC1C[C@@H]2CCC3C(C)(C)CCC[C@]3(C)C23CC[C@@]1(C)C3 (stereo partly specified) ?
Reply: 30.7 µM

====

Test system: HCT-15 colon
experimentNotes: NCI tumour cell line growth inhibition, 48 h
assayEndpoint: TGI

Ask: Form entry - test system: HCT-15 colon; read-out: TGI; compound: CCOC(=O)c1cccc(N=NNc2cccc(C(=O)OCC)c2)c1
Reply: > 100 µM

Ask: What do we get for CCN(CC)C(=O)N[C@@H](CC(C)C)C(=O)NC ?
Reply: > 100 µM

Ask: What do we get for CC(NC(CC12CC3CC(CC(C3)C1)C2)C(N)=O)c1ccccc1 (centres undefined) ?
Reply: > 100 µM

Ask: What do we get for CCc1nnc2sc(-c3ccc(-c4ccccc4[N+](=O)[O-])o3)nn12 ?
Reply: > 100 µM

Ask: What do we get for COC(=O)c1sc(-n2cnc3cc(OC)c(OC)cc32)cc1OCc1ccccc1C(F)(F)F ?
Reply: > 25 µM

Ask: What do we get for Clc1ccc(Cc2nc3cc(Cl)c(Cl)cc3n2CC2CCCN3CCCCC23)cc1 (centres undefined) ?
Reply: 23.3 µM

Ask: What do we get for COC(=O)[C@]12CC[C@@H](C)[C@H](C)[C@@H]1C1=CC[C@@H]3[C@@]4(C)C[C@@H](OC(C)=O)[C@H](OC(C)=O)[C@@](C)(COC(C)=O)[C@@H]4[C@H](O)C[C@@]3(C)[C@]1(C)CC2 ?
Reply: > 100 µM

Ask: What do we get for Cc1cnc(C(=O)Nc2nc3ccc(S(=O)(=O)Nc4ccc(C(C)(C)C)cc4)cc3[nH]2)cn1 ?
Reply: 3.09 µM

Ask: What do we get for O=C(O)CCCCCNCc1cc2cc3c(cc2c2cc(OCc4ccccc4)ccc12)OCO3 ?
Reply: 5.88 µM

Ask: What do we get for COc1cccc(C2c3cc4c(cc3OC(NNS(=O)(=O)c3ccc(C)cc3)C2C)OCO4)c1O (centres undefined) ?
Reply: > 100 µM

Ask: What do we get for O=C1c2ccc3c4c(ccc(c24)C(=O)N1CCCCO)C(=O)N(CCCCO)C3=O ?
Reply: 10.5 µM

Ask: What do we get for C#Cc1c(C)c(/C=C/C(C)=C\C(=O)OC)n(C)c1C ?
Reply: > 100 µM

Ask: What do we get for C=CC[PH+](c1ccccc1)c1ccccc1.C=CC[PH+](c1ccccc1)c1ccccc1.[Pt+2].[S-]c1nc2ccccc2[nH]1.[S-]c1nc2ccccc2[nH]1 ?
Reply: > 100 µM

Ask: What do we get for Cc1n[nH]c(=O)c2c3c([nH]c12)-c1ccccc1C3 ?
Reply: > 100 µM

Ask: What do we get for NS(=O)(=O)c1cccc(Nc2cc(-c3ccc(F)cc3)[nH]n2)c1 ?
Reply: > 25 µM

Ask: What do we get for COc1cc2c3c(c4ccc(O)cc4c2cc1OC)[C@@H](O)[C@@H]1CCCN1C3 ?
Reply: 0.204 µM

Ask: What do we get for O=C(NCC(O)COc1ccccc1)c1ccccc1O (centres undefined) ?
Reply: > 100 µM

Ask: What do we get for CCCNC(=O)c1cc(OC)c(OC)cc1NC(=O)C12CC3CC(CC(C3)C1)C2 ?
Reply: 32.7 µM

Ask: What do we get for O=C(Cn1c(=O)oc2ccccc21)N(c1ccccc1)c1ccccc1 ?
Reply: > 100 µM

====

Tested on: SN12C renal
experimentNotes: NCI tumour cell line growth inhibition, 48 h
assayEndpoint: TGI

Ask: For the compound O=C1C=C2SC3C[C@@]24CC1(O)[N+]1=c2c4c(c(O)c4c2=C(C=N4)CC1)N3 , what TGI is on record?
Reply: 2 µM

Ask: What do we get for C#C[C@]1(O)CC[C@H]2[C@@H]3CCC4=C/C(=N/OC(=O)c5cccc6cc7ccccc7nc56)CC[C@@H]4[C@H]3CC[C@@]21CC ?
Reply: > 100 µM

Ask: What do we get for NC1(C(=O)O)CCC(C(=O)O)CC1 (centres undefined) ?
Reply: > 100 µM

Ask: What do we get for COc1cc2c(c(O)c1OC)C(O)C1CCC(=O)N1C2c1ccc2c(c1)OCO2 (centres undefined) ?
Reply: > 100 µM

Ask: What do we get for Cc1ccc(NC(c2ccccc2)P(=O)(c2ccccc2)c2ccccc2)cc1 (centres undefined) ?
Reply: > 100 µM

Ask: What do we get for Cc1cc2c3ccccc3n3c2c2c1OC1(C)CCC(C2C1)C3(C)C (centres undefined) ?
Reply: > 25 µM

Ask: What do we get for CO[C@H]1C[C@H](O[C@H]2CC[C@@]3(C)[C@H](CC[C@@H]4[C@@H]3CC[C@]3(C)[C@@H](C5=CC(=O)OC5)CC[C@]43O)C2)O[C@H](C)[C@H]1O ?
Reply: 0.0111 µM

Ask: What do we get for CN(C)NC(=O)NC12CC3CC(CC(C3)C1)C2 ?
Reply: > 100 µM

Ask: What do we get for CN(C(=O)C12C3C4C1C1C2C3C41C#N)C(C)(C)C (centres undefined) ?
Reply: > 100 µM

Ask: What do we get for CC(=O)OC1(C(C)=O)CC2(c3ccccc3)OC1(c1ccccc1)c1ccccc12 (centres undefined) ?
Reply: > 100 µM

Ask: What do we get for O=C(Nc1c[nH]c(=O)[nH]c1=O)Oc1ccccc1 ?
Reply: > 100 µM

Ask: What do we get for CCCCCCCC(=O)NC(C)(C)C(=O)NCC(=O)NC(CC(C)C)C(=O)NC(C)(C)C(=O)NCC(=O)NCC(=O)NC(CC(C)C)C(=O)NC(C)(C)C(=O)NCC(=O)NC(C(=O)NC(CO)CC(C)C)C(C)CC (centres undefined) ?
Reply: 7.7 µM

Ask: What do we get for Nc1ncc(CN2CCCC2)c(-c2ccccc2O)n1 ?
Reply: > 750 µM

Ask: What do we get for O=C1OCOC2(CCCC2)C1c1ccccc1 (centres undefined) ?
Reply: > 100 µM

Ask: What do we get for CC1=C(\C=C/C(C)=C/C=C/C(C)=C/C=C/C=C(C)\C=C\C=C(C)/C=C/C2=C(C)CCCC2(C)C)C(C)(C)CCC1 ?
Reply: > 100 µM

Ask: What do we get for COc1ccc2c(Cl)cc(NC(=S)Nc3ccccc3)nc2c1 ?
Reply: > 100 µM

Ask: What do we get for CCC(C)C(NC(=O)c1cccc2c(=O)c3ccccc3[nH]c12)C(=O)O (centres undefined) ?
Reply: > 100 µM

Ask: What do we get for CCOC(=O)C1=C(C)N(NC(=O)Nc2ccccc2)C2(N)N(NC(=O)Nc3ccccc3)C(C)=C(C(=O)OCC)C12C#N (centres undefined) ?
Reply: 33 µM

Ask: What do we get for C(=C\c1ccc2ccccc2c1Nc1ccccc1)/c1ccccc1 ?
Reply: > 100 µM
